SUBJECT_OF_TEST: S100A4 (Homo sapiens, UniProt P26447)
Construct: made in house; host or cells: Escherichia coli BL21(DE3)
Sequence (P26447 whole entry): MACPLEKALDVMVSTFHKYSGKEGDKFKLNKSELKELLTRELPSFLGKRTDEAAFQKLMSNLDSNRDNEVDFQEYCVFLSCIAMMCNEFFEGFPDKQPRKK
TEST_DETAILS: Pull-down assay with immobilized protein and LSM libraries
Format: binding
TEST_PARAMETERS: H14 library; 1:1 binding assumed; read-out: Surface mapping KD (apparent)
pKd: −log10 of the molar value.
MEASURED_PROPERTY: pKd

1. CSCC[C@@H](CC(=O)N[C@H]1CCCC[C@@H]1C(=O)N[C@H]1CCCC[C@@H]1C(=O)N[C@H](CC(=O)N[C@H]1CCCC[C@@H]1C(N)=O)Cc1c[nH]c2ccccc12)NC(=O)[C@H]1CCCC[C@@H]1N
4.39
2. C[C@@H](O)[C@@H](CC(=O)N[C@H]1CCCC[C@@H]1C(=O)N[C@H]1CCCC[C@@H]1C(=O)N[C@@H](CCCNC(=N)N)CC(=O)N[C@H]1CCCC[C@@H]1C(N)=O)NC(=O)[C@H]1CCCC[C@@H]1N
3.39

Cited source for all entries: paper PMC8162404
